Biological target: UniProt P11166
Assay: Indirect measurement of GLUT1 activity by quantification of intracellular ATP levels (glucose induced ATP increase)
Assay type: cell-based
Set-up: endogenous in cells; host or cells: DLD1 or CHO-K1
Settings: read-out: IC50 regarding glucose induced ATP increase (GLUT1 inhibition)
Observable: IC50 (nM)

The following compounds have reported results that may help.
Cc1nn(Cc2ccc(C(=O)NCc3cccs3)cc2)c(C)c1NC(=O)c1cc(C(F)(F)F)nc2ccc(Br)cc12 [Example 1110] : 55.4
Cc1ccc2nc(C)cc(C(=O)Nc3c(C(F)(F)F)nn(Cc4ccc(F)cc4F)c3C)c2c1 [Example 204] : 613
COc1cccc(Cn2nc(C)c(NC(=O)c3cc(C(N)=O)nc4cccc(F)c34)c2C)c1 [Example 1451] : 8.5

[A] Cc1nn(Cc2ccc(C#N)cc2)c(C)c1NC(=O)c1cc(Br)nc2ccccc12 [Example 380]
[B] Cc1c(NC(=O)c2cc(C(N)=O)nc3cc(F)ccc23)c(C(F)(F)F)nn1Cc1ccc(-c2nnn[nH]2)cc1 [Example 400]
Request: # query: argmin of IC50 over A and B # answer = label of selected item
Result: A

[P] Cc1nn(Cc2ccc(C(F)(F)F)cc2)c(C)c1NC(=O)c1cc(C(F)(F)F)nc2ccc(Br)cc12 [Example 1302]
[Q] Cc1nn(Cc2ccc(C(=O)NCCOCCO)cc2)c(C)c1NC(=O)c1cc(C(F)(F)F)nc2ccc(Br)cc12 [Example 1144]
Request: Compare the recorded IC50 of P and Q ; state which is larger. Write down the label of the entry you select.
Result: P
(P: 11100 nM, Q: 114 nM)

====

Target: UniProt:P11166
Sequence (P11166 1-492): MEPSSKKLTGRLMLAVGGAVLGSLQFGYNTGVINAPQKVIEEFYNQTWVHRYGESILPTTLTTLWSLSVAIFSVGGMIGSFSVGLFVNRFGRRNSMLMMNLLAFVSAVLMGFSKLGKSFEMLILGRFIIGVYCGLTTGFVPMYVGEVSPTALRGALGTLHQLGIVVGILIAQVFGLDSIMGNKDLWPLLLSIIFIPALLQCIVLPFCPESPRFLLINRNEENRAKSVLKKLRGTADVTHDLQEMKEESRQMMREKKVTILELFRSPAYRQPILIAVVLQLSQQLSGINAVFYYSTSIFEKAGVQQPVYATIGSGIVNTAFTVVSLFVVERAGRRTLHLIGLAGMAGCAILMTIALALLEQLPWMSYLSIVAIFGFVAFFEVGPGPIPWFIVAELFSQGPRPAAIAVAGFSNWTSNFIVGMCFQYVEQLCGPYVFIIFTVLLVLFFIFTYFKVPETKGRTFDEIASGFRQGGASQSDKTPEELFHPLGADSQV
Test: Indirect measurement of GLUT1 activity by quantification of intracellular ATP levels (glucose induced ATP increase)
Format: cell-based
Design: endogenous in cells; host or cells: DLD1 or CHO-K1
Details: read-out: IC50 regarding glucose induced ATP increase (GLUT1 inhibition)
Observable: IC50 (nM)

Solved cases (5 shown):
Cc1nn(Cc2ccc(CC(=O)N3CCOCC3)cc2)c(C)c1NC(=O)c1cc(C(F)(F)F)nc2ccc(Br)cc12 : 521
Cc1c(NC(=O)c2cc(C(N)=O)nc3cc(F)c(F)cc23)c(C(F)(F)F)nn1Cc1ccc(C#N)cc1F : 3.6
Cc1cc(Cn2nc(C(F)(F)F)c(NC(=O)c3cc(C(N)=O)nc4cc(F)ccc34)c2C)on1 : 84.9
Cc1cccc(Cn2nc(C(F)(F)F)c(NC(=O)c3cc(C(N)=O)nc4cccc(F)c34)c2C)c1 : 22.7
Cc1c(NC(=O)c2cc(S(C)=NC#N)nc3ccccc23)c(C(F)(F)F)nn1Cc1ccc(C#N)cc1 (racemic) : 81.7

[A] COc1cc(Cn2nc(C(F)(F)F)c(NC(=O)c3cc(C(N)=O)nc4cccc(F)c34)c2C)ccc1C#N
[B] Cc1c(NC(=O)c2cc(C(N)=O)nc3cc(F)c(Cl)cc23)c(C(F)(F)F)nn1Cc1ccc(C(F)(F)F)cc1
Request: Could you kindly indicate whether A or B has the higher IC50 value? // output: label of the selected item
Result: B
(B: 13.9 nM, A: 3.8 nM)

[P] Cc1nn(Cc2ccc(C#N)nc2)c(C)c1NC(=O)c1cc(C(F)(F)F)nc2cc(F)c(F)cc12
[Q] Cc1nn(Cc2nccn2C)c(C)c1NC(=O)c1cc(C(N)=O)nc2ccccc12
Request: Of P versus Q , which is the one with smaller reported IC50? Mark your selection by writing its label.
Result: P

These data points were gathered from patent US20170037028A1.
